experimental target: Rhodobacter sphaeroides cytochrome c oxidase (RsCcO) (Cereibacter sphaeroides, UniProt P33517+Q03736)
Sequence (P33517 whole entry): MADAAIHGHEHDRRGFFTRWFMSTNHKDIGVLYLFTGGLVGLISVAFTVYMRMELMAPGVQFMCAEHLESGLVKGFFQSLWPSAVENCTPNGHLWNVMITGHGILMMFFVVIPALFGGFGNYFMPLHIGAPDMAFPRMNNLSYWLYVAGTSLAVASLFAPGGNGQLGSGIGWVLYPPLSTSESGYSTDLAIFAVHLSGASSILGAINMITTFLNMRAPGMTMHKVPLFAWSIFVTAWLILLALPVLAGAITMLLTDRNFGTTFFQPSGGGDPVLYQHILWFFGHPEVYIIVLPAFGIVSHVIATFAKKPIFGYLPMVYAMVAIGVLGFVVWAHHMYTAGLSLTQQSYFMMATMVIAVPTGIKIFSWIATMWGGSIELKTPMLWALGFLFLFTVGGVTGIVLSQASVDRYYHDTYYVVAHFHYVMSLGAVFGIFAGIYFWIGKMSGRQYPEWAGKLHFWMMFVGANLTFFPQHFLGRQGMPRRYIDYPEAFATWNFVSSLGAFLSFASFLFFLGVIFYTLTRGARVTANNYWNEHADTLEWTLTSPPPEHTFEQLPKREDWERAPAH
Sequence (Q03736 26-303 limits assumed): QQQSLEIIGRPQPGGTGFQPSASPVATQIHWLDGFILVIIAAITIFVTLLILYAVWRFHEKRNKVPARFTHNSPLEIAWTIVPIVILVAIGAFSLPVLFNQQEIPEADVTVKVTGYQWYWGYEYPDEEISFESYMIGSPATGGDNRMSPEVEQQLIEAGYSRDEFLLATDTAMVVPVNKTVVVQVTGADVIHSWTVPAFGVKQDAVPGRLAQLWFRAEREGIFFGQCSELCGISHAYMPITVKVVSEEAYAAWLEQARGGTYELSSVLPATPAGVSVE
assay overview: Clark electrode O2 uptake, cytochrome c / ascorbate / TMPD
Format: biochemical
assay context: read-out: K1/2; inhibition; 0.01% DDM, pH 7.4, 30 μM bovine cytochrome c
pIC50: −log10 of the molar value.
property measured: pIC50

[in] Indicate its recorded pIC50; the sequence in question is CHOBIMALT
[out] ~3.70

###

experimental target: Rhodobacter sphaeroides cytochrome c oxidase (RsCcO) (Cereibacter sphaeroides, UniProt P33517+Q03736, Q03736:E101A)
Sequence (P33517 whole entry): as the sequence (P33517 whole entry) above
Sequence (Q03736 26-303 E101A limits assumed): as the sequence (Q03736 26-303 limits assumed) above, with E76A counted along it
assay overview: Clark electrode O2 uptake, cytochrome c / ascorbate / TMPD
Provide the recorded EC50 for the entries that follow.

Use these answered entries as a reference point.
>  <compound>
CC(C)CCC[C@@H](C)[C@H]1CC[C@H]2[C@@H]3CC=C4C[C@@H](OC(=O)CCC(=O)O)CC[C@]4(C)[C@H]3CC[C@]12C [cholesteryl hemisuccinate]

>  <property measured>
EC50

>  <result>
~80 µM

$$$$
>  <compound>
CC1=C(/C=C/C(C)=C/C=C/C(C)=C/C(=O)O)C(C)(C)CCC1

>  <property measured>
EC50

>  <result>
~8 µM

$$$$
>  <compound>
C=CC1=C(C)/C(=C/c2[nH]c(Cc3[nH]c(/C=C4\NC(=O)C(C)=C4C=C)c(C)c3CCC(=O)O)c(CCC(=O)O)c2C)NC1=O

>  <property measured>
EC50

>  <result>
~50 µM

$$$$
>  <compound>
C=CC1=C(C)c2cc3[nH]c(cc4nc(cc5[nH]c(cc1n2)c(C)c5CCC(=O)O)C(CCC(=O)O)=C4C)c(C)c3C=C

>  <property measured>
EC50

>  <result>
~14 µM

$$$$
>  <compound>
CC(C)CCCC(C)CCCC(C)CCCC(C)CC(=O)O (stereo not drawn)

>  <property measured>
EC50

>  <result>
~4 µM

$$$$

Turning to the following compound.
[in] Indicate its recorded EC50; the compound in question is C[C@H](CCC(=O)O)[C@H]1CC[C@H]2[C@@H]3[C@H](O)C[C@@H]4C[C@H](O)CC[C@]4(C)[C@H]3C[C@H](O)[C@]12C [cholate]
[out] 200 µM
